Quick reference for EC50 among some molecules
Tested on: CEM cells HIV-1 protection, formazan growth assay
Experiment: NCI AIDS Antiviral Assay

- molecule: "Cc1c(C)c2c(c(N)c1C#N)C(=O)N(O)C2=O"
  system under test: "CEM cells HIV-1 protection, formazan growth assay"
  EC50: "> 200 µM"
- molecule: "O=C1OC(OCC#CCOC2OC(=O)C(Cl)=C2Cl)C(Cl)=C1Cl (stereo unspecified)"
  system under test: "CEM cells HIV-1 protection, formazan growth assay"
  EC50: "> 200 µM"
- molecule: "c1cc2ccc1C1NCCCN1CCN1CCCNC1c1ccc(cc1)C1NCCCN1CCN1CCCNC21 (stereo unspecified)"
  system under test: "CEM cells HIV-1 protection, formazan growth assay"
  EC50: "> 13.2 µM"
- molecule: "CCOC(=O)c1nc2ccc(C(F)(F)F)cc2nc1Oc1ccc(OC)cc1"
  system under test: "CEM cells HIV-1 protection, formazan growth assay"
  EC50: "> 200 µM"
- molecule: "O=C1C[C@H](c2ccc(O)c(O)c2)Oc2cc(O)cc(O)c21"
  system under test: "CEM cells HIV-1 protection, formazan growth assay"
  EC50: "> 631 µM"
- molecule: "COC(=O)c1noc2c1CSC1=C2CS(=O)(=O)c2ccccc21"
  system under test: "CEM cells HIV-1 protection, formazan growth assay"
  EC50: "> 200 µM"
- molecule: "Oc1c(-c2ccccc2)nc2cnccn12"
  system under test: "CEM cells HIV-1 protection, formazan growth assay"
  EC50: "> 447 µM"
- molecule: "COC(=O)c1ccccc1NCc1cc(O)ccc1O"
  system under test: "CEM cells HIV-1 protection, formazan growth assay"
  EC50: "> 200 µM"
- molecule: "CC(SC(=S)N1CCOCC1)c1cc2oc(=O)n(C)c2cc1Cl (stereo unspecified)"
  system under test: "CEM cells HIV-1 protection, formazan growth assay"
  EC50: "> 10 µM"
- molecule: "N/C(=N\\N=C\\c1cccc2ccccc12)N/N=C/c1cccc2ccccc12"
  system under test: "CEM cells HIV-1 protection, formazan growth assay"
  EC50: "> 200 µM"
- molecule: "CC(=O)Nc1ccccc1S(=O)c1ccccc1 (stereo unspecified)"
  system under test: "CEM cells HIV-1 protection, formazan growth assay"
  EC50: "> 229 µM"

###

Test system: CEM cells HIV-1 protection, formazan growth assay
Assay: NCI AIDS Antiviral Assay

- compound: "CN1C/C(=C\\c2cccs2)C2=NN(c3ccccc3)C(c3cccs3)C2C1 (stereo not given)"
  EC50: "> 200 µM"
- compound: "Cc1ccc(S(=O)(=O)Oc2coc(CO)cc2=O)cc1"
  EC50: "> 200 µM"
- compound: "O=C1[C@@H]2C(c3ccccc3F)=NO[C@@H]2C(=O)N1c1ccc(Cc2ccc(N3C(=O)[C@H]4C(c5ccccc5F)=NO[C@H]4C3=O)cc2)cc1"
  EC50: "> 8.32 µM"
- compound: "COc1cc2cccc(N=Cc3ccccc3Cl)c2cc1OC"
  EC50: "> 30.9 µM"
- compound: "CCOC(=O)/C=C/C1(CCOC(C)=O)CCCCC1"
  EC50: "> 200 µM"
- compound: "CN1C(=O)C2(Cc3cn(C45CC67SSC(CO)(C(=O)N6C4Nc4ccccc45)N(C)C7=O)c4ccccc34)SSC1(CO)C(=O)N2C (stereo not given)"
  EC50: "> 0.2 µM"
- compound: "NCCC1([N+](=O)[O-])CCNCC1"
  EC50: "> 200 µM"
- compound: "O=c1[nH]c(=O)n(C2COC(CO)C2O)cc1F (stereo not given)"
  EC50: "> 200 µM"
- compound: "CP1CCC(O)(c2ccccc2)CC1 (stereo not given)"
  EC50: "> 200 µM"
- compound: "COCC1C(=O)c2cc3c(cc2C12C=CC1(C=C2)OCCO1)OCO3 (stereo not given)"
  EC50: "> 275 µM"
